Each recorded value in this set is attributed to patent US20170247475A1.

study.target: T1, recombinant human VEGF165 (human, UniProt P15692-4 27-191)
T1 construct: also called hVEGF165; rhVEGF165
T1 sequence (P15692 other isoform, or with tags, fused parts or gaps limits assumed): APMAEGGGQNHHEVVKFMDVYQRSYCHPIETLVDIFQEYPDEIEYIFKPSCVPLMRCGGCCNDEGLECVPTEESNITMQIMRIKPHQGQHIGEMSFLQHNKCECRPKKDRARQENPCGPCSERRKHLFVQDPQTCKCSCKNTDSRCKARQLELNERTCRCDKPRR
assay.summary: SPR Biacore T100, Two State Reaction model; KD = kd1/ka1 * (kd2/(kd2 + ka2))
Protocol: Samples are injected for 2 min and allowed to dissociate up to 20 min at a flow rate of 45 μI/min. In between sample injections, the chip surface is regenerated with 100 mM HCl. HBS-EP+(Hepes buffer pH7.4+EDTA) is used as running buffer. Binding curves are fitted using a Two State Reaction model by Biacore T100 Evaluation Software v2.0.1. ^{(a)}KD = kd1/kₐ₁ * (kd2/(kd2 + kₐ₂)) ^{(b)}Curves are fitted using a Two State Reaction model by Biacore T100 Evaluation Software v2.0.1
endpoint.label: Kd (nM)

binder	endpoint.label	recorded.number
VEGFBII023 (VHH, biparatopic bivalent VHH in one chain; also called VEGFBII23B04-40GS-10E07; VEGFBI023) EVQLVESGGGLVQTGDSLRLSCEVSGRTFSSYSMGWFRQAQGKEREFVVAISKGGYKYDSVSLEGRFTISKDNAKNTVYLQINSLKPEDTAVYYCASSRAYGSSRLRLADTYEYWGQGTQVTVSSGGGGSGGGGSGGGGSGGGGSGGGGSGGGGSGGGGSGGGGSEVQLVESGGGLVQAGGSLRLSCAASGRTFSNYAMGWFRQAPGKERVLVADISSSGINTYVADAVKGRFTISRDNAKNTVYLQMNSLKPEDTAVYYCAASAWWYSQMARDNYRYWGQGTQVTVSS	Kd	0.69
